Item-by-item account of MIC
System: Mycobacterium tuberculosis
TEST DETAILS: Anti-mycobacterial activity against Mycobacterium tuberculosis H37Rv assessed as bacterial growth inhibition incubated for 7 days by microplate Alamar blue assay
Assay type: functional
MEASUREMENT PARAMETERS: 168 h, time 7 day
OBSERVABLE: MIC (µM)

COMPOUND: Clc1ccc(COC(Cn2ccnc2)c2ccc(Cl)cc2Cl)c(Cl)c1 (stereo not given)
UNIT SYMBOL: µM
CENSOR SYMBOL: =
TEST RESULT: 3.74
--
COMPOUND: CC(=O)NC[C@H]1CN(c2ccc(N3CCOCC3)c(F)c2)C(=O)O1
UNIT SYMBOL: µM
CENSOR SYMBOL: =
TEST RESULT: 2.31
--
COMPOUND: CC[C@@H]([C@H](C)O)n1ncn(-c2ccc(N3CCN(c4ccc(OC[C@@H]5CO[C@@](Cn6cncn6)(c6ccc(F)cc6F)C5)cc4)CC3)cc2)c1=O
UNIT SYMBOL: µM
CENSOR SYMBOL: >
TEST RESULT: 35
--
COMPOUND: CCC(C)n1ncn(-c2ccc(N3CCN(c4ccc(OCC5COC(Cn6cncn6)(c6ccc(Cl)cc6Cl)O5)cc4)CC3)cc2)c1=O (stereo not given)
UNIT SYMBOL: µM
CENSOR SYMBOL: >
TEST RESULT: 35
--
COMPOUND: Clc1ccccc1C(c1ccccc1)(c1ccccc1)n1ccnc1
UNIT SYMBOL: µM
CENSOR SYMBOL: =
TEST RESULT: 2.26

###

TARGET OR TEST SYSTEM: Amine oxidase [flavin-containing] A (Homo sapiens, UniProt P21397)
Sequence (P21397 whole entry): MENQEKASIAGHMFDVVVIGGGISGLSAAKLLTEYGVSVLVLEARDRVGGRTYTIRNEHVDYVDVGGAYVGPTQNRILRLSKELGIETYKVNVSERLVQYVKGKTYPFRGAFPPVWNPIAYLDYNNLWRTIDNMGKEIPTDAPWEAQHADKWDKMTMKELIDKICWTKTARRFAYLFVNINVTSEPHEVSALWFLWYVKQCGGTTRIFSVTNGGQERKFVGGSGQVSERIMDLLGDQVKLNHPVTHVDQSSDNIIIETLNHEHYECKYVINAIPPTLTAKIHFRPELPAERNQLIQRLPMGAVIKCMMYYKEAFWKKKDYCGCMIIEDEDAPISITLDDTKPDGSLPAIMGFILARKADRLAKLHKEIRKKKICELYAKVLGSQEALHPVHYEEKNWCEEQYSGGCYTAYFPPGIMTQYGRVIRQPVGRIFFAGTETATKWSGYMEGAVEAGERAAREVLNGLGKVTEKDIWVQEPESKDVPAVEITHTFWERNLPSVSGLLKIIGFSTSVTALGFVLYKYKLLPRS
TEST DETAILS: Inhibition of recombinant MAO-A (unknown origin) using kynuramine as a substrate by MAO assay
pIC50: −log10 of the molar value.
OBSERVABLE: pIC50

COMPOUND: CC(=O)NC[C@H]1CN(c2ccc(N3CCOCC3)c(F)c2)C(=O)O1
TEST RESULT: 5.19

COMPOUND: Clc1ccccc1C(c1ccccc1)(c1ccccc1)n1ccnc1
TEST RESULT: 4.59

COMPOUND: Clc1ccc(COC(Cn2ccnc2)c2ccc(Cl)cc2Cl)c(Cl)c1 (stereo not drawn)
TEST RESULT: 4.42
